Source: the supplement of paper PMC11451515

# Tested on: P12-Ichikawa
# experimentalDetails: cell viability relative to DMSO control; higher = less cytotoxic
# appliedConditions: RPMI 5 mM glucose + 10% dialyzed FBS; 48 h; 0.569 µM
Measured cell viability of individual entries
Give just the numeric value; % need not be written.

Some entries whose results are on file:
[[record]]
compoundstring = "COc1cc([C@@H]2c3cc4c(cc3[C@H](O)[C@H]3COC(=O)[C@@H]23)OCO4)cc(OC)c1OC"
studysystem = "P12-Ichikawa"
assayvalue = 43.9

[[record]]
compoundstring = "O=C(Nc1nnc(-c2ccco2)o1)c1cc(-c2ccccc2)nc2ccccc12"
studysystem = "P12-Ichikawa"
assayvalue = 100

[[record]]
compoundstring = "Cc1nn(C)c(COc2ccc(N3CCN([S+](=O)([O-])N(C)C)CC3)cc2)c1-c1cccc2c(CCCOc3cccc4ccccc34)c(C(=O)O)n(CCN3CCOCC3)c12"
studysystem = "P12-Ichikawa"
assayvalue = 120


Attention now turns to another entry.
Ask: GET /values?readout=cell viability&item= "CC1=C(/C=C/C(C)=C/C=C/C(C)=C\C(=O)O)C(C)(C)CCC1"
Reply: 91.9
